Tested on: MALME-3M melanoma
Assay: NCI-60 one-dose screen, 48 h
Details: 10 µM unless noted
The panel holds about 83,000 compounds, 20% with a hit somewhere; the sample as a whole holds those more often. The source made the active and inactive calls. Rule for the calls: active = growth percent below 10; inactive = the rest.
Log the outcome using a class from Y for active, N for inactive

Take a look at these entries with their results.
Query: recorded result category for `CN1CCN(/C(=N\c2sc(-c3ccccc3)nc2-c2ccccc2)c2ccccc2)CC1` in this test
N

Query: recorded result category for `Cc1ccc2c(N)c(C(=O)Nc3ccc(OC(F)(F)F)cc3)sc2n1` in this test
N

# next compound below
Query: recorded result category for COCOc1cc2c(=O)c(C)c(C(=O)N[C@@H](Cc3ccccc3)C(O)C(=O)NCc3ccccc3)oc2cc1OC (stereo partly drawn) in this test
Y

====

System: SK-MEL-2 melanoma
Assay: NCI-60 one-dose screen, 48 h (100 = growth as untreated, 0 = no growth, -100 = all killed)
Details: 10 µM unless noted
Procedure: Growth inhibition of the SK-MEL-2 human tumor cell line is measured as a screen for anti-cancer activity. Cells are grown in 96 well plates and exposed to the test compound for 48 hours. Compounds are tested at a single concentration, which is 10^-5 M for most compounds. The reported endpoint is percent growth (GI% or GIPRCNT), where numbers from 0 - 100% represent growth inhibition, and numbers from -100% - 0 represent cell death. For example, a value of 40 represents 60% growth inhibition. […]
The panel holds about 83,000 compounds, 20% with a hit somewhere; the sample as a whole holds those more often.
endpoint.name: growth (%)
One number for each entry, in %.

Which growth is listed for `CN1CCN(c2ccc3c(c2)nc(NNC(=O)c2ncccn2)c2cccn23)CC1` ?
-7.45

Batch of 5 molecules: report growth for each.
1. COc1ccc2c(c1)c(-c1cc3nc(-c4cn(C)c5ncccc45)cc(N)n3n1)cn2C
2. Cc1ccc(C(=O)C(c2c[nH]c3ccccc23)c2c[nH]c3ccccc23)cc1
3. COc1ccc(C2=NN(c3ccccc3)C(c3ccc(OCc4ccccc4)c(OC)c3)C2)cc1OC (configuration not stated)
4. COc1c(F)ccc(C(=O)Nc2ccc3nc(NC(=O)C4CCCN(S(=O)(=O)c5ccc(C#N)cc5)C4)sc3c2)c1F (configuration not stated)
5. N#Cc1c(-c2ccc(Br)cc2)nc2n[nH]c(-c3ccc(Br)cc3)c2c1-c1ccc(F)cc1

1: -71.9; 2: 72.4; 3: 86.5; 4: 97.1; 5: 109

====

Tested on: 786-0 renal
Test: NCI-60 one-dose screen, 48 h
Settings: 10 µM unless noted
Compounds without any hit were thinned out: in the full panel of roughly 83,000, 20% have a hit. Calls of active or inactive are those of the source. Rule for the calls: active = growth percent below 10; inactive = the rest.
Log the outcome using a class from active, inactive

Take a look at these entries with their results.
Query: recorded result category for Cc1nc(Nc2ccccn2)sc1C(=O)CC(SCC(=O)Nc1ccc(Cl)cc1)c1ccccc1F (stereo not drawn) in this test
inactive

Query: recorded result category for COc1cc2c(c(OC)c1OC)C(=O)CC(c1cccc(NC(=O)[C@@H](N)CC(C)C)c1)O2 (stereo partly drawn) in this test
inactive

Query: recorded result category for `C[C@H]1CN(C(=O)c2ccc3c(NNC(=O)c4ccncn4)nc4cc(F)c(F)cc4n23)CCN1` in this test
active

Query: recorded result category for `N#Cc1c(-c2cccc(Cl)c2Cl)cc(-c2c[nH]c3ccccc23)[nH]c1=O` in this test
inactive

Query: recorded result category for `COc1ccc(-c2nc(SC(C)C)nc(NCCc3c[nH]c4ccccc34)c2C#N)cc1` in this test
inactive

More entries:
Query: recorded result category for `C#C[C@]1(O)CC[C@H]2[C@@H]3CC=C4c5sc(-c6ccc([N+](=O)[O-])cc6)nc5CC[C@]4(C)[C@H]3CC[C@@]21C` in this test
inactive

Query: recorded result category for `CN(C)CCCNC(=O)c1cc(NC(=O)c2cc(NC(=O)c3ccc(/C=C/c4ccccc4)cc3)cn2C)cn1C` in this test
inactive

Query: recorded result category for `O=C(O)c1ccc(-c2ccc(/C=N/NC(=O)c3[nH]c4ccc(Br)cc4c3-c3ccccc3)o2)cc1` in this test
inactive

Hey, just so you know, these numbers are from PubChem BioAssay (NCI).
